Assay Notes: Acute toxicity assay in shrimp larvae
Type: in vivo, Litopenaeus vannamei
Measurement Setup: Litopenaeus vannamei (shrimp) larvae, in vivo, other: immersion of larvae in test solutions, 24 h exposure, 28 °C, 95% CI in brackets, read-out: LC50 (mg/L; 95% CI) 24 h
Labelling: LC50 at 24 h reported below 20 mg/L becomes 1 (yes); at or above becomes 0 (no).

Reference set (2 entries):
O=C1Nc2c(c(=O)oc3ccccc23)C(c2ccc([N+](=O)[O-])cc2)N1 (stereo not drawn)
1 (yes)
O=c1oc2ccccc2c2c1C(c1ccc(Br)cc1)NC(=S)N2 (stereo not drawn)
1 (yes)

[ask] Is 20 mg/L strictly greater than the compound's reported LC50 at 24 h? compound: O=C1Nc2c(c(=O)oc3ccccc23)C(c2ccc(F)cc2)N1 (stereo not drawn)
[reply] 1 (yes)

----------
System: white spot syndrome virus (WSSV)
Assay Notes: Stability assay in aquacultural water (residual anti-WSSV activity)
Parameters: species or system Litopenaeus vannamei
Measurement Setup: buffer, 28 °C, nonlinear regression best-fit, read-out: calculated inhibitory half-life in water samples (converted)
Quantity Kind: half-life at 10 mg/L
Answer format: number, then unit.

Per the records, this compound ( Cc1ccc(C2C(C#N)=C(N)Oc3c2c(=O)oc2ccccc32)cc1 (stereo not shown) [C2] ) has half-life at 10 mg/L equal to 55.2 h

----------
Assay Notes: Acute toxicity assay in shrimp larvae
Type: in vivo, Litopenaeus vannamei
Measurement Setup: Litopenaeus vannamei (shrimp) larvae, in vivo, other: immersion of larvae in test solutions, 48 h exposure, 28 °C, 95% CI in brackets, read-out: LC50 (mg/L; 95% CI) 48 h
The reader will find reported LC50 at 48 h values listed item by item below.
The number alone won't do; follow it with the unit.

Record excerpt, results attached:
COc1ccc(C2NC(=O)Nc3c2c(=O)oc2ccccc32)cc1 (centres unmarked) [A3]
24.5 mg/L
O=C1Nc2c(c(=O)oc3ccccc23)C(c2ccc(Br)cc2)N1 (centres unmarked) [A7]
5.68 mg/L

Form: compound = Cc1ccc(C2NC(=O)Nc3c2c(=O)oc2ccccc32)cc1 (centres unmarked) [A2] ; LC50 at 48 h = 14.3 mg/L

Summary for this compound, N#CC1=C(N)Oc2c(c(=O)oc3ccccc23)C1c1ccc(Cl)cc1 (centres unmarked) [C6] : LC50 at 48 h is 44.2 mg/L

The reported LC50 at 48 h of the compound O=C1Nc2c(c(=O)oc3ccccc23)C(c2ccc(Cl)cc2)N1 (centres unmarked) [A6] was 2.48 mg/L

----------
Tested on: white spot syndrome virus (WSSV)
Assay Notes: Anti-WSSV activity in shrimp larvae, co-incubation, copy number of viral genome by RT-qPCR
Assay type: in vivo, Litopenaeus vannamei
Measurement Setup: Whispovirus xiabaidian, 72 h, read-out: EC50 (mg/L; 95% CI), median effective concentration, WSSV-infected larvae, copy number of viral genome, 72 h; 95% CI in brackets
Quantity Kind: EC50 (mg/L)
Report as a plain number; the unit mg/L is understood.

Consider the following illustrative entries.
O=c1oc2ccccc2c2c1C(c1ccc(O)cc1)NC(=S)N2 (stereo not drawn) [B4]
22.6
N#CC1=C(N)Oc2c(c(=O)oc3ccccc23)C1c1ccc(F)cc1 (stereo not drawn) [C5]
8.82
N#CC1=C(N)Oc2c(c(=O)oc3ccccc23)C1c1ccc(Cl)cc1 (stereo not drawn) [C6]
8.54
N#CC1=C(N)Oc2c(c(=O)oc3ccccc23)C1c1ccccc1 (stereo not drawn) [C1]
2.9
N#CC1=C(N)Oc2c(c(=O)oc3ccccc23)C1c1ccc([N+](=O)[O-])cc1 (stereo not drawn) [C8]
6.6
O=C1Nc2c(c(=O)oc3ccccc23)C(c2ccc(O)cc2)N1 (stereo not drawn) [A4]
21.7

So for N#CC1=C(N)Oc2c(c(=O)oc3ccccc23)C1c1ccc(C#N)cc1 (stereo not drawn) [C9] , the logged EC50 turned out to be 60.5

# compound COc1ccc(C2C(C#N)=C(N)Oc3c2c(=O)oc2ccccc32)cc1 (stereo not drawn) [C3] ; its EC50 = 14.8

----------
Assay Notes: Solubility / precipitation in aquacultural water
Type: physicochemical
Measurement Setup: test range 0.4~100 mg/L; aquacultural water; LC50 NONE
Quantity Kind: lowest precipitation concentration (bracketed value in LC50 48 h column)

N#CC1=C(N)Oc2c(c(=O)oc3ccccc23)C1c1ccc([N+](=O)[O-])cc1 (centres unmarked)
NONE (16) mg/L
O=C1Nc2c(c(=O)oc3ccccc23)C(c2ccc(O)cc2)N1 (centres unmarked)
NONE (50) mg/L
N#CC1=C(N)Oc2c(c(=O)oc3ccccc23)C1c1ccc(F)cc1 (centres unmarked)
NONE (16) mg/L
O=c1oc2ccccc2c2c1C(c1ccc(O)cc1)NC(=S)N2 (centres unmarked)
NONE (50) mg/L

Here is the next item to consider.
# molecule Cc1ccc(C2C(C#N)=C(N)Oc3c2c(=O)oc2ccccc32)cc1 (centres unmarked) ; its lowest precipitation concentration (bracketed value in LC50 48 h column) = NONE (16) mg/L

----------
Assay Notes: Acute toxicity assay in shrimp larvae
Assay type: in vivo, Litopenaeus vannamei
Measurement Setup: Litopenaeus vannamei (shrimp) larvae, in vivo, other: immersion of larvae in test solutions, 72 h exposure, 28 °C, 95% CI in brackets, read-out: LC50 (mg/L; 95% CI) 72 h
LC50 at 72 h values, listed per item
Note: unit mg/L is implicit; provide only the numeric part.

Illustrative cases are given below, each with its answer.
Cc1ccc(C2NC(=O)Nc3c2c(=O)oc2ccccc32)cc1 (stereo not shown) [A2]
10
O=C1Nc2c(c(=O)oc3ccccc23)C(c2ccccc2)N1 (stereo not shown) [A1]
32.5
O=C1Nc2c(c(=O)oc3ccccc23)C(c2ccc(Cl)cc2)N1 (stereo not shown) [A6]
2.35

Field LC50 at 72 h (entry N#Cc1ccc(C2NC(=O)Nc3c2c(=O)oc2ccccc32)cc1 (stereo not shown) [A9] ) reads 7.33

Just so you know, measured LC50 at 72 h for O=c1oc2ccccc2c2c1C(c1ccc(Cl)cc1)NC(=S)N2 (stereo not shown) [B6] came out at 4.5

Lab note: O=c1oc2ccccc2c2c1C(c1ccc(F)cc1)NC(=S)N2 (stereo not shown) [B5] gave LC50 at 72 h of 8.4

GET /value?item= COc1ccc(C2NC(=O)Nc3c2c(=O)oc2ccccc32)cc1 (stereo not shown) [A3] &field=LC50 at 72 h returns 21.1

According to the records, this molecule N#Cc1ccc(C2NC(=S)Nc3c2c(=O)oc2ccccc32)cc1 (stereo not shown) [B9] displays LC50 at 72 h of 9.63

Looking up N#CC1=C(N)Oc2c(c(=O)oc3ccccc23)C1c1ccc(Cl)cc1 (stereo not shown) [C6] , I found its LC50 at 72 h recorded as 17.7

The molecule O=c1oc2ccccc2c2c1C(c1ccc(Br)cc1)NC(=S)N2 (stereo not shown) [B7] showed LC50 at 72 h equal to 4.46

----------
Assay Notes: Solubility / precipitation in aquacultural water
Type: physicochemical
Measurement Setup: test range 0.4~100 mg/L; aquacultural water; LC50 NONE
Quantity Kind: lowest precipitation concentration

O=c1oc2ccccc2c2c1C(c1ccc(O)cc1)NC(=S)N2 (centres unmarked)
NONE (50) mg/L
O=C1Nc2c(c(=O)oc3ccccc23)C(c2ccc(O)cc2)N1 (centres unmarked)
NONE (50) mg/L
N#CC1=C(N)Oc2c(c(=O)oc3ccccc23)C1c1ccc([N+](=O)[O-])cc1 (centres unmarked)
NONE (16) mg/L
Cc1ccc(C2C(C#N)=C(N)Oc3c2c(=O)oc2ccccc32)cc1 (centres unmarked)
NONE (16) mg/L

For this compound ( N#CC1=C(N)Oc2c(c(=O)oc3ccccc23)C1c1ccc(F)cc1 (centres unmarked) ), measured lowest precipitation concentration is NONE (16) mg/L

----------
Assay Notes: Acute toxicity assay in shrimp larvae
Assay type: in vivo, Litopenaeus vannamei
Measurement Setup: Litopenaeus vannamei (shrimp) larvae, in vivo, other: immersion of larvae in test solutions, 48 h exposure, 28 °C, 95% CI in brackets, read-out: LC50 (mg/L; 95% CI) 48 h
# key: entry, value: LC50 at 48 h
Entry rule: numbers only, all in mg/L.

Solved cases below.
O=c1oc2ccccc2c2c1C(c1ccc(Br)cc1)NC(=S)N2 (stereo not drawn)
4.81
O=C1Nc2c(c(=O)oc3ccccc23)C(c2ccc(F)cc2)N1 (stereo not drawn)
11.7

response.value for O=C1Nc2c(c(=O)oc3ccccc23)C(c2ccccc2)N1 (stereo not drawn) (field: LC50 at 48 h) = 71.4

----------
Assay Notes: Acute toxicity assay in shrimp larvae
Type: in vivo, Litopenaeus vannamei
Measurement Setup: Litopenaeus vannamei (shrimp) larvae, in vivo, other: immersion of larvae in test solutions, 24 h exposure, 28 °C, 95% CI in brackets, read-out: LC50 (mg/L; 95% CI) 24 h
Quantity Kind: LC50 at 24 h (mg/L)
Kindly answer with a numeric value in mg/L, unit omitted.

N#Cc1ccc(C2NC(=S)Nc3c2c(=O)oc2ccccc32)cc1 (stereo not drawn)
37.1
O=C1Nc2c(c(=O)oc3ccccc23)C(c2ccc(Cl)cc2)N1 (stereo not drawn)
2.58
O=C1Nc2c(c(=O)oc3ccccc23)C(c2ccc(Br)cc2)N1 (stereo not drawn)
14.1
Cc1ccc(C2NC(=O)Nc3c2c(=O)oc2ccccc32)cc1 (stereo not drawn)
15
COc1ccc(C2NC(=O)Nc3c2c(=O)oc2ccccc32)cc1 (stereo not drawn)
26.9
O=C1Nc2c(c(=O)oc3ccccc23)C(c2ccccc2)N1 (stereo not drawn)
95.5
COc1ccc(C2NC(=S)Nc3c2c(=O)oc2ccccc32)cc1 (stereo not drawn)
66.2
Cc1ccc(C2NC(=S)Nc3c2c(=O)oc2ccccc32)cc1 (stereo not drawn)
23.9
O=c1oc2ccccc2c2c1C(c1ccccc1)NC(=S)N2 (stereo not drawn)
15
N#CC1=C(N)Oc2c(c(=O)oc3ccccc23)C1c1ccccc1 (stereo not drawn)
18.4

In the following, a different compound is considered.
For reference, reported LC50 at 24 h for O=c1oc2ccccc2c2c1C(c1ccc(F)cc1)NC(=S)N2 (stereo not drawn) stands at 16.6
